These data points were gathered from paper PMC4339026.

# tested.system: meprin α (Homo sapiens, UniProt Q16819)
# Sequence (Q16819 66-653 limits assumed): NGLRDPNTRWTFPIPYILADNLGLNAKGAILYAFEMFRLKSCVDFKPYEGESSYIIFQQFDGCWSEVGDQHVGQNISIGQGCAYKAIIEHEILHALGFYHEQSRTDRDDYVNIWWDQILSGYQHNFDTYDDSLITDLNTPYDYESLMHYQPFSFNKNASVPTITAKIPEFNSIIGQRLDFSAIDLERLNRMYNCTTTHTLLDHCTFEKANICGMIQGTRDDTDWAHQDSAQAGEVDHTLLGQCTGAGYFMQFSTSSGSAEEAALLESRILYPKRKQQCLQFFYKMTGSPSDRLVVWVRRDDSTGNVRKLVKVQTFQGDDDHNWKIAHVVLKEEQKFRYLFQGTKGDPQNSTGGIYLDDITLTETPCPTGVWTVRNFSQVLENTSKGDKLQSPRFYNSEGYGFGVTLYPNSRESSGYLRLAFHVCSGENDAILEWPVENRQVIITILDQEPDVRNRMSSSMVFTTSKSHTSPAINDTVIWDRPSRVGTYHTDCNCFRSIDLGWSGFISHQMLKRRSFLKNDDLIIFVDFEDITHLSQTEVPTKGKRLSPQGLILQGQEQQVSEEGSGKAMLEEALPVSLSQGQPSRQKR
# experiment.notes: Meprin α HTS FRET assay, dose response
# Type: biochemical
# experimental.context: IC50 meprin α, 0.1% DMSO
measure.name: pIC50
Numbers only, as −log10 of the molar value.

Could you share which pIC50 value was measured for `CCCCC[C@H](CC(=O)NO)C(=O)N[C@H](C(=O)N1CCC[C@H]1CO)C(C)C` ? 8.82

* * *

# tested.system: ADAM10 (Homo sapiens)
# Sequence (O14672 214-748): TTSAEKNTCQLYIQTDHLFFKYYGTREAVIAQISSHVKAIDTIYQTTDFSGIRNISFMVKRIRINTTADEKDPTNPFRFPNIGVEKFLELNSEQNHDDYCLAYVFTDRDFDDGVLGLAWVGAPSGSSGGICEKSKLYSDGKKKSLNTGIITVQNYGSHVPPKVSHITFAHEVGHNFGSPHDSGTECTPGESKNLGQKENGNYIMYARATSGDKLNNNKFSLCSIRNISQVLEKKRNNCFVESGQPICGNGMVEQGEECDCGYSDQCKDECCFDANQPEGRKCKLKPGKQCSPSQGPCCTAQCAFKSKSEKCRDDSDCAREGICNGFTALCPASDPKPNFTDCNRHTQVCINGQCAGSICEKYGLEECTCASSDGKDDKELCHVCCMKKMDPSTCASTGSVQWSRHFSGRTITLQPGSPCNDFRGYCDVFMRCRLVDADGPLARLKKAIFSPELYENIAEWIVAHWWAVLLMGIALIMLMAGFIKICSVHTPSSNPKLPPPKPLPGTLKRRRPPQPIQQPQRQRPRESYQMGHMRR
measure.name: IC50 (µM)
One number for each entry, in µM.

# compound, IC50 / µM
measured = [
    ("Cc1nc(N=Nc2cc(S(=O)(=O)[O-])c3cc([N+](=O)[O-])cc(S(=O)(=O)[O-])c3c2)c(COP(=O)([O-])[O-])c(C=O)c1O.[Na+].[Na+].[Na+].[Na+] [PPNDS]", 19),
    ("N.N.[Cl][Pt][Cl] [Cisplatin, cisplatin]", 4.2),
]

Please report the recorded IC50 for O=C(Nc1cc(C(=O)Nc2ccc(S(=O)(=O)O)cc2S(=O)(=O)O)cc(C(=O)Nc2ccc(S(=O)(=O)O)cc2S(=O)(=O)O)c1)Nc1cc(C(=O)Nc2ccc(S(=O)(=O)O)cc2S(=O)(=O)O)cc(C(=O)Nc2ccc(S(=O)(=O)O)cc2S(=O)(=O)O)c1 [NF449] . 1.2

* * *

# tested.system: meprin β (Homo sapiens)
# experiment.notes: Meprin β HTS FRET assay, dose response
# Assay type: biochemical
# experimental.context: IC50 meprin β, 0.1% DMSO
measure.name: IC50 (µM)
Answers are plain numbers, in µM.

IC50 for `CCCCC[C@H](CC(=O)NO)C(=O)N[C@H](C(=O)N1CCC[C@H]1CO)C(C)C` ? 5.2

* * *

# tested.system: meprin β (Homo sapiens, UniProt Q16820)
# Sequence (Q16820 62-614 limits assumed): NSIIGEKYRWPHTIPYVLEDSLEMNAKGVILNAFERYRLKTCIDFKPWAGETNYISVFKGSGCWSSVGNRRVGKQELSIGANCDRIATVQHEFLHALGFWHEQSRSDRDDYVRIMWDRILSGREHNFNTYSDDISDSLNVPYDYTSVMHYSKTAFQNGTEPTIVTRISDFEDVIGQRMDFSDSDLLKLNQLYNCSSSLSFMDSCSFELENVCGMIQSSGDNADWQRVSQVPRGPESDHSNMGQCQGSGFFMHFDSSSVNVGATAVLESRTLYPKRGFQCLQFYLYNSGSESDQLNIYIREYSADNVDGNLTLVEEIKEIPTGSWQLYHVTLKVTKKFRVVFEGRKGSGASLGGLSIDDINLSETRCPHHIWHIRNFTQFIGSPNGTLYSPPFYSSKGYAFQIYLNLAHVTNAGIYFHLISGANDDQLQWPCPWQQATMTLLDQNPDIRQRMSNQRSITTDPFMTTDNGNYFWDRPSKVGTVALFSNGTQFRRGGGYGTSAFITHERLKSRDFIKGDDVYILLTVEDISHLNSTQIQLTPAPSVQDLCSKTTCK
# experiment.notes: Meprin β HTS FRET assay, dose response
# Assay type: biochemical
# experimental.context: read-out: IC50 Meprin β; selectivity testing; n = 3 Mean ± SD
For each of the molecules below, state its pIC50.
One number for each entry, as −log10 of the molar value.

# given.smiles, measure.name, endpoint.result
data = [
    ("O=C(Nc1cc(C(=O)Nc2ccc(S(=O)(=O)O)cc2S(=O)(=O)O)cc(C(=O)Nc2ccc(S(=O)(=O)O)cc2S(=O)(=O)O)c1)Nc1cc(C(=O)Nc2ccc(S(=O)(=O)O)cc2S(=O)(=O)O)cc(C(=O)Nc2ccc(S(=O)(=O)O)cc2S(=O)(=O)O)c1", "pIC50", 7.15),
]

Next molecule, pIC50 to be filled in.
Look at this molecule and give its reported pIC50. `Cc1nc(N=Nc2cc(S(=O)(=O)[O-])c3cc([N+](=O)[O-])cc(S(=O)(=O)[O-])c3c2)c(COP(=O)([O-])[O-])c(C=O)c1O.[Na+].[Na+].[Na+].[Na+]` 7.10
